targetOrSystem: HGF (hepatocyte growth factor/scatter factor) (UniProt P14210;P14210 P14210:32-494,P14210:495-728)
Sequence (P14210 32-494, chain 1 of 2): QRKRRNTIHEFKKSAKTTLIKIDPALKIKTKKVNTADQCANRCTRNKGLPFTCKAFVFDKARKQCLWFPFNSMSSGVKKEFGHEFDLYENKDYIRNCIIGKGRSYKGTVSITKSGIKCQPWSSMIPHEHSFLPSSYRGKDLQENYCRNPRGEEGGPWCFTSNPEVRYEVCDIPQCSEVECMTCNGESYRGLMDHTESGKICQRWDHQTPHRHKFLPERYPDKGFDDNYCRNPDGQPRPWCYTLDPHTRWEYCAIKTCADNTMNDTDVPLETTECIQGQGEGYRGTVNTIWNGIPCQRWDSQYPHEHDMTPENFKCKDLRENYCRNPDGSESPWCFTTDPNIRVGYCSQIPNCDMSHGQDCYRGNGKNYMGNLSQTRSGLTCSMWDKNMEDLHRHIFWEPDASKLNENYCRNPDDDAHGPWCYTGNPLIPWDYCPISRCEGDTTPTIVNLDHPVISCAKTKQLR
Sequence (P14210 495-728, chain 2 of 2): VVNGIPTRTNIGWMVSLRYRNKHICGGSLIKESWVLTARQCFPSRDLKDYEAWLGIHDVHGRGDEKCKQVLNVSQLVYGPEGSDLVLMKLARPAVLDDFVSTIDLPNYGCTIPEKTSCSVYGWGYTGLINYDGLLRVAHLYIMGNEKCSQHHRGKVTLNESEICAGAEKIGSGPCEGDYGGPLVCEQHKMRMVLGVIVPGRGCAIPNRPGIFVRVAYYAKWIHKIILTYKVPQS
assay: filter; HBSMC, 37C; worse than random pool
setupConditions: tags: R&D Systems
pKd: −log10 of the molar value.
measurementLabel: pKd

>>> readoutnumber("8-151 (ssRNA, 2'-F pyrimidines) RNA: GGGAGGACGAUGCGGAGGACUAAUCCCUAAGGAAUAGCUUGCCCGCAGACGACUCGCCCGA")
8.10
